- System: RXF 393 renal
- EXPERIMENT NOTES: NCI-60 one-dose screen, 48 h (100 = growth as untreated, 0 = no growth, -100 = all killed)
- ASSAY SETUP: 10 µM unless noted
About 83,000 compounds went through this panel and 20% of them were active in at least one assay; those are over-represented in the sample as a whole. The source made the active and inactive calls. The calls were made as follows: active = growth percent below 10; inactive = the rest.
// reported growth per item

Check out these entries, answers already filled in.
CCOC(=O)c1nn(C2CCCCO2)c2ccc(NC(=O)CSc3nc4ccccc4c(=O)[nH]3)cc12 (stereo not given)	71.8% (inactive)
CC(C)(C)c1cc(C(=O)Nc2ccccc2C(=O)NCCN)cc(C(C)(C)C)c1	-89.3% (active)
Cc1ccc(NC(=S)/N=c2/n(-c3ccccc3)nc3n2CCN3C2=NCCN2)cc1	101% (inactive)
CCCCCn1c(C)cc(/C=C\c2ccc3cc(C)ccc3[n+]2C)c1C	-60.8% (active)

Let us examine a further case.
query: So what growth did O=C1C(Cl)=C(Nc2ccc3cn[nH]c3c2)C(=O)c2ccccc21 get with RXF 393 renal?
result: -95.9% (active)

###

- Tested on: EKVX NSCLC
- EXPERIMENT NOTES: NCI-60 one-dose screen, 48 h (100 = growth as untreated, 0 = no growth, -100 = all killed)
- ASSAY SETUP: 10 µM unless noted
Compounds without any hit were thinned out: in the full panel of roughly 83,000, 20% have a hit. Calls of active or inactive are those of the source. How the source made its calls: active means growth percent below 10; inactive means the rest.
// reported growth per item

Check out these entries, answers already filled in.
CCOC(=O)CC(c1ccccc1)C(C#N)c1ccccc1 (stereo not drawn)	87.5% (inactive)
Cc1ccc2c(n1)C(=O)C(Cl)=C(Nc1ccc(N3CCN(C)CC3)cc1)C2=O	-81.8% (active)
O=C(CSc1nccc(Nc2ccc(S(=O)(=O)Nc3ccccn3)cc2)n1)c1ccc(Cl)cc1	101% (inactive)
C[C@H]1[C@H](C)CC[C@]2(C(=O)N3CCN(C)CC3)CC[C@]3(C)C(=CC[C@@H]4[C@@]5(C)C/C(=C/c6ccco6)C(=O)C(C)(C)[C@@H]5CC[C@]43C)[C@H]12	42.3% [100 µM] (inactive)
O=[N+]([O-])c1cc([N+](=O)[O-])c(C(F)(F)F)cc1NN=C(c1ccc(O)cc1)c1ccc(O)cc1	92.7% (inactive)
COc1ccc2c3ccnc(C(F)(F)F)c3n(CCCCN)c2c1	45.7% (inactive)
CC1(C)OC2[C@@H](CNC(=O)NC(=O)NC(=O)CI)O[C@@H](n3cnc4c(NC(=O)Nc5ccccc5)ncnc43)[C@H]2O1 (stereo partly drawn)	77.3% (inactive)

Let us examine a further case.
query: So what growth did CCN1CCN(CC(=O)Nc2nc3ccc(NCc4ccc(Cl)cc4)cc3s2)CC1 get with EKVX NSCLC?
result: 86.3% (inactive)

###

- Tested on: NCI-H322M lung
- EXPERIMENT NOTES: NCI-60 one-dose screen, 48 h
- ASSAY SETUP: 10 µM unless noted
This is part of a sample that, as a whole, favours compounds with a hit. Of some 83,000 tested, about 20% had one in any assay. Activity calls are given as the source filed them. Rule for the calls: active = growth percent below 10; inactive = the rest.
API: response.call in Y = active, N = inactive

Solved entries (count: 2):
CSc1nc2sc3cc(Cl)c(Cl)cc3n2c(=N)c1C#N	N
CC1Cc2c(Cl)ncnc2N(C)c2ccc(O)cc21 (stereo unspecified)	N

query: So what was the verdict on CSc1nc(=S)c2nc(SC)n(-c3ccccc3)c2[nH]1 in this test?
result: N

query: So what was the verdict on O=C1CC(c2ccccc2)Cc2nc3ccc(Cl)cc3cc21 (stereo unspecified) in this test?
result: N

query: So what was the verdict on CC1(C)NCCC[C@]2(C)[C@H]3C=CC4=C5C[C@](C)(CO)CC[C@]5(C)CC[C@@]4(C)[C@]3(C)CC[C@@H]12 in this test?
result: Y

query: So what was the verdict on COc1cc(Cl)cc(-c2nn(C(=O)NS(=O)(=O)c3ccccc3)cc2-c2ccncc2)c1 in this test?
result: N
